Target: PRMT5/MEP50 complex (Homo sapiens) (UniProt O14744+Q9BQA1)
Experiment: Inhibition of recombinant human N-terminal FLAG-tagged PRMT5 (2 to end residues) /human N-terminal His-tagged MEP50 (2 to end residues) expressed in HEK293F cells at 50 uM using substrate pretreated for 15 mins followed by substrate and [3H]-SAM addition measured after 60 mins by scintillation proximity assay relative to control
Type: cell-based
measured property: inhibition (%)

# annotated cases, reported inhibition shown
COc1ccc(Cl)cc1C(=O)Nc1nc(-c2ccc(C)c(C)c2)cs1 :: 3.5
COc1ccc(OC)c(Nc2nc(-c3ccc4ccccc4c3)cs2)c1 :: 23
Cc1cc(-c2csc(Nc3ccc(O)c(C(=O)O)c3)n2)ccc1F :: 71
COc1ccc(-c2csc(NC(=O)c3ccccc3Cl)n2)cc1C :: 3.5

a. O=C(O)COc1ccc(Br)cc1-c1csc(Nc2ccc(Br)cc2)n1
b. COc1ccc(OC)c(Nc2nc(-c3ccc(Cl)cc3Cl)cs2)c1
QUERY: // select label with min value of measured inhibition from [ a , b ] Answer by quoting the chosen item's label.
RESULT: b
(b: 20%, a: 61%)

A. COc1ccc(-c2csc(Nc3ccc4c(c3)OCO4)n2)cc1Br
B. COc1ccc(Br)cc1C(=O)NC(=S)Nc1nc(-c2ccccc2)cs1
QUERY: Endpoint returns whichever of A and B has the numerically higher inhibition. Answer by quoting the chosen item's label.
RESULT: A

A. COc1ccc(Nc2nc(-c3cc4ccccc4o3)cs2)cc1
B. CCCOc1ccc(Nc2nc(-c3cc4cc(OC)ccc4oc3=O)cs2)cc1
QUERY: // select label with min value of measured inhibition from [ A , B ] Answer by quoting the chosen item's label.
RESULT: B
(B: 7%, A: 10%)

* * *

Biological target: PRMT5/MEP50 complex (Homo sapiens) (UniProt O14744+Q9BQA1)
Assay: Inhibition of recombinant human N-terminal FLAG-tagged PRMT5 (2 to end residues) /human N-terminal His-tagged MEP50 (2 to end residues) expressed in HEK293F cells at 50 uM using substrate pretreated for 15 mins followed by substrate and [3H]-SAM addition measured after 60 mins by scintillation proximity assay relative to control
Assay type: cell-based
measured property: inhibition (%)

COc1ccccc1Nc1nc(-c2ccc3ccccc3c2)cs1 :: 6

P. CCOc1ccc(-c2csc(Nc3ccc(Cl)cc3)n2)cc1[N+](=O)[O-]
Q. CCOc1cc(C(=O)Nc2nc(-c3ccc(C)cc3C)cs2)cc(OCC)c1OCC
QUERY: // select label with min value of measured inhibition from [ P , Q ] Answer by quoting the chosen item's label.
RESULT: Q
(Q: 0%, P: 25%)

A. COc1ccc(Nc2nc(-c3ccc(OCc4ccc([N+](=O)[O-])cc4)cc3)cs2)cc1
B. COc1ccccc1Nc1nc(-c2cc3cc(Br)ccc3oc2=O)cs1
QUERY: Endpoint returns whichever of A and B has the numerically higher inhibition. Answer by quoting the chosen item's label.
RESULT: B
(B: 9%, A: 0%)

* * *

Tested on: MV4-11
Assay: Antiproliferative activity against human MV411 cells after 4 days by Celltiiter-Glo luminescence cell viability assay
Conditions: MV4-11, 96 h
measured property: pEC50
Here pEC50 is given on a logarithmic scale as minus log10 of the concentration in mol/L.

QUERY: Could you share which pEC50 value was measured for `COc1ccc(-c2csc(Nc3ccc(O)c(C(=O)O)c3)n2)cc1C` ?
RESULT: 4.65

* * *

Target: PRMT5/MEP50 complex (Homo sapiens) (UniProt O14744+Q9BQA1)
Assay: Inhibition of recombinant human N-terminal FLAG-tagged PRMT5 (2 to end residues) /human N-terminal His-tagged MEP50 (2 to end residues) expressed in HEK293F cells at 50 uM using substrate pretreated for 15 mins followed by substrate and [3H]-SAM addition measured after 60 mins by scintillation proximity assay relative to control
Assay type: cell-based
measured property: inhibition (%)

# annotated cases, reported inhibition shown
COc1cccc(Nc2nc(-c3ccc(OC)c(Br)c3)cs2)c1 :: 27.4
COc1ccc(-c2csc(Nc3ccc(C)c(Cl)c3)n2)cc1F :: 26.4
CCOc1ccccc1Nc1nc(-c2cc3cc(OC)ccc3oc2=O)cs1 :: 0
COc1cc(Cl)c(OC)c(Nc2nc(-c3ccc(C)cc3)cs2)c1 :: 33
COc1cc(Nc2nc(-c3cc(C)ccc3C)cs2)c(OC)cc1Cl :: 24

A. COc1ccc(-c2csc(NC3=CS(=O)(=O)c4ccccc43)n2)cc1OC
B. COc1ccc(Nc2nc(-c3ccc(OCc4ccc(Br)cc4)cc3)cs2)cc1
C. CC[n+]1c(-c2ccccc2)csc1Nc1ccc(O)c(C(=O)O)c1
D. COc1ccc(-c2csc(Nc3ccc(O)c(C(=O)O)c3)n2)cc1C
QUERY: Let's sort these by inhibition, smallest first. Go ahead? Use the labels to give the ranking in the order requested.
RESULT: B, C, A, D

a. Cc1ccc(C)c(-c2csc(Nc3ccc(O)c(C(=O)O)c3)n2)c1
b. COc1ccc(-c2csc(Nc3ccc(Cl)c(Cl)c3)n2)cc1
QUERY: // select label with min value of measured inhibition from [ a , b ] Answer by quoting the chosen item's label.
RESULT: b

* * *

Molecular target: PRMT5/MEP50 complex (Homo sapiens)
Test: Inhibition of recombinant human N-terminal FLAG-tagged PRMT5 (2 to end residues) /human N-terminal His-tagged MEP50 (2 to end residues) expressed in HEK293F cells using biotinylated H4 derived peptide as substrate pretreated for 15 mins followed by substrate and [3H]-SAM addition measured after 60 mins by liquid scintillation counting method
measured property: IC50 (nM)
Write it as a number; the unit nM goes unstated.

QUERY: Could you share which IC50 value was measured for OC(CNCc1c(OCc2ccccc2)ccc2ccccc12)c1ccccc1 (stereo unspecified) ?
RESULT: 2800

* * *

Target: PRMT5/MEP50 complex (Homo sapiens)
Test: Inhibition of recombinant human N-terminal FLAG-tagged PRMT5 (2 to end residues) /human N-terminal His-tagged MEP50 (2 to end residues) expressed in HEK293F cells using substrate pretreated for 15 mins followed by substrate and [3H]-SAM addition measured after 60 mins by scintillation proximity assay
Format: cell-based
pIC50: −log10 of the molar value.
measured property: pIC50

A. CCN(CC)CCCNC(=O)c1ccc(OC)c([N+](=O)[O-])c1
B. COc1ccc(-c2csc(Nc3ccc(O)c(C(=O)O)c3)n2)cc1C
QUERY: // select label with min value of measured pIC50 from [ A , B ] Answer by quoting the chosen item's label.
RESULT: A

* * *

Target: Histone-arginine methyltransferase CARM1 (Homo sapiens, UniProt Q86X55)
Sequence (Q86X55 whole entry): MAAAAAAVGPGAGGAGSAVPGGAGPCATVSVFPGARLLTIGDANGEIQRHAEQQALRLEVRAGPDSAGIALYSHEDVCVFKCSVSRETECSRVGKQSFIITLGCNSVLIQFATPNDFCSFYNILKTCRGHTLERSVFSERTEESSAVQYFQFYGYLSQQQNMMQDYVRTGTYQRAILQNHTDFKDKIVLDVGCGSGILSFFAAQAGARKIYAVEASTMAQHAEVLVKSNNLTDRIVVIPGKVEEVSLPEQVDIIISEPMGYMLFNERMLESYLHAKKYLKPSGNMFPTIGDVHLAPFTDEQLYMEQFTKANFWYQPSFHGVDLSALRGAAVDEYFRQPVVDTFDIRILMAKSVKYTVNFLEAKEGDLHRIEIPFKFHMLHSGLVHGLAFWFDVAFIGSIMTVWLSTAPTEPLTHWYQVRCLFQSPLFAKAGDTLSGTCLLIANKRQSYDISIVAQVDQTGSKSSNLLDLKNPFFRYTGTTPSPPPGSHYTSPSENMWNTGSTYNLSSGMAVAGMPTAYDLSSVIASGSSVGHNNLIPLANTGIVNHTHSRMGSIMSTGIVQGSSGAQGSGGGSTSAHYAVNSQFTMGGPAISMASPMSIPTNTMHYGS
Assay: Inhibition of recombinant human N-terminal FLAG-tagged CARM1 (2 to end residues) expressed in HEK293F cells pretreated for 15 mins followed by substrate addition measured after 60 mins by Alphalisa assay
Format: cell-based
pIC50: −log10 of the molar value.
measured property: pIC50

QUERY: Could you share which pIC50 value was measured for `COc1ccc(-c2csc(Nc3ccc(O)c(C(=O)O)c3)n2)cc1C` ?
RESULT: < 4.00

* * *

Target: Protein arginine N-methyltransferase 1 (Homo sapiens, UniProt Q99873)
Sequence (Q99873 whole entry): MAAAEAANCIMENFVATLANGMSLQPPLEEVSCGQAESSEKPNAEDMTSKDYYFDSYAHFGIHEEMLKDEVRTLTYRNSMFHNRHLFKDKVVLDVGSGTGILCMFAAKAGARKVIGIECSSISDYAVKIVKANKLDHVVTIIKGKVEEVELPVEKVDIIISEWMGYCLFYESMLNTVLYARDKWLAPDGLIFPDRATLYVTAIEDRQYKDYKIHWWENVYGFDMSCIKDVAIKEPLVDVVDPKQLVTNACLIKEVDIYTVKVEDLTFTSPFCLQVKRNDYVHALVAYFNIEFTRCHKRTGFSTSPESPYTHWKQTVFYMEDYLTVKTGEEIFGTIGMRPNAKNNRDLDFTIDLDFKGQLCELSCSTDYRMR
Assay: Inhibition of recombinant human N-terminal GST-tagged PRMT1 (2 to end residues) expressed in baculovirus infected Sf9 insect cells using peptide substrate pretreated for 15 mins followed by substrate/[3H]-SAM addition measured after 60 mins by scintillation proximity assay
measured property: IC50

QUERY: Could you share which IC50 value was measured for `COc1ccc(-c2csc(Nc3ccc(O)c(C(=O)O)c3)n2)cc1C` ?
RESULT: > 100 µM

* * *

Target: PRMT5/MEP50 complex (Homo sapiens, UniProt O14744)
Sequence (O14744 whole entry): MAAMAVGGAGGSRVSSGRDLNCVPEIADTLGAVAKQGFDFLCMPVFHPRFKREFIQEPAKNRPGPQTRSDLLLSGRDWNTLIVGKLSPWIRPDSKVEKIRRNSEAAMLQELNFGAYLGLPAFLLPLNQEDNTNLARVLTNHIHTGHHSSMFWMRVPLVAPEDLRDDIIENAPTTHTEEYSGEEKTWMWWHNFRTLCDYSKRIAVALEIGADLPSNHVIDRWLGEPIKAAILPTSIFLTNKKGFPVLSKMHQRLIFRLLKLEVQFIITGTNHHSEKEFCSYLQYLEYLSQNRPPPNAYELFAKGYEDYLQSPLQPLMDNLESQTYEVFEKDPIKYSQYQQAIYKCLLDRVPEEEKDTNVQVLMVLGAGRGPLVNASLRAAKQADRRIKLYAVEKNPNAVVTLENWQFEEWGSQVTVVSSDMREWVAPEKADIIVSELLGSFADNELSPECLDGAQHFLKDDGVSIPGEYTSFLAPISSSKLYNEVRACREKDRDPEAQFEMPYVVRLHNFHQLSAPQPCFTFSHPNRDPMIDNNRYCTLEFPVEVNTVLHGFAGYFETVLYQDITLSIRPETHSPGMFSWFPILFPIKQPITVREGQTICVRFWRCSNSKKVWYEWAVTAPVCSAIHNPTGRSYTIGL
Sequence (Q9BQA1 whole entry, further chain): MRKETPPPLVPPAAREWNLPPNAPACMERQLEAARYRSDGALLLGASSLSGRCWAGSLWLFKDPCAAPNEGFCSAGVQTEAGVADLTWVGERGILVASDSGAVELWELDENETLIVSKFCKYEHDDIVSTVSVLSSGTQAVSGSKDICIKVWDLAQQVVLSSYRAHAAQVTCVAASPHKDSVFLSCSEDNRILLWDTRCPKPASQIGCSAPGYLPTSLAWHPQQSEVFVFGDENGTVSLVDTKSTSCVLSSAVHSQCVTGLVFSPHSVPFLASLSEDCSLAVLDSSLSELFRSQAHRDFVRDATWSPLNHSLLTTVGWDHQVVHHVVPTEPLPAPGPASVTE
Assay: Inhibition of recombinant human N-terminal FLAG-tagged PRMT5 (2 to end residues) /human N-terminal His-tagged MEP50 (2 to end residues) expressed in HEK293F cells using substrate pretreated for 15 mins followed by substrate and [3H]-SAM addition measured after 60 mins by scintillation proximity assay
Format: cell-based
measured property: IC50 (µM)

Cc1ccc(C)c(-c2csc(Nc3ccc(O)c(C(=O)O)c3)n2)c1 :: 35

I. COc1cc(Br)c(Br)c(/C=N/c2cccc(-c3nc4ccccc4[nH]3)c2)c1O
II. Cc1cc(-c2csc(Nc3ccc(O)c(C(=O)O)c3)n2)ccc1F
QUERY: Endpoint returns whichever of I and II has the numerically higher IC50. Answer by quoting the chosen item's label.
RESULT: I
(I: 48 µM, II: 22 µM)
